# target-desc: BtOBP2 (Bemisia tabaci, UniProt A0A097BTY7)
# method: Fluorescence binding of the probe 1-NPN to recombinant BtOBP2
# test-context: recombinant BtOBP2 2 µM, Scatchard analysis; read-out: binding constant (Kd) of 1-NPN to BtOBP2
measured-quantity: pKd
Give bare numbers, as −log10 of the molar value.

Observed pKd on BtOBP2 (Bemisia tabaci, UniProt A0A097BTY7) for c1ccc(Nc2cccc3ccccc23)cc1 , please.
5.53

* * *

Consider the following molecules; for each one, report its pIC50.
# target-desc: UniProt A0A097BTY7
# Sequence (A0A097BTY7 23-247): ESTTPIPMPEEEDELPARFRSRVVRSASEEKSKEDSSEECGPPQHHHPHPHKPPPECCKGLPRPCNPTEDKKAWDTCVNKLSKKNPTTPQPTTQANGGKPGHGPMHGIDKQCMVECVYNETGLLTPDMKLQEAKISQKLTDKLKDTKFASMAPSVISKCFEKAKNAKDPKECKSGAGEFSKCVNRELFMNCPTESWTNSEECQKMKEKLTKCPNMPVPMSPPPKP
# method: Fluorescence competitive binding assay (displacement of 1-NPN from BtOBP2)
# test-context: mean ± SEM; BtOBP2 2 µM, ligand 2 to 20 µM; read-out: IC50, ligand concentration displacing 50% of the fluorescence intensity of the BtOBP2/1-NPN complex
One number for each entry, as −log10 of the molar value.

Answered cases to consult:
> print(dat)
                                   molecule  obs.value
1     C=C1C=CC(C(C)C)CC1 (stereo not shown)       4.59
2  C=CC(=C)CCCC(C)CCCC(C)CCCC(C)C (stereo not shown)       5.10
3      C=C1CCC2CC1C2(C)C (stereo not shown)       4.86

Report pIC50 for each item below.
1. CC1=CCC2CC1C2(C)C (stereo not shown)
2. CC1=CC=C(C(C)C)CC1

1: 4.84; 2: 4.69

Report pIC50 for each item below.
1. Cc1ccc(C(C)C)cc1
2. C=C1CC/C=C(\C)CC[C@@H]2[C@@H]1CC2(C)C

4.79
4.85

Provenance of the data: paper PMC12165043
